# System: U2OS
# ASSAY_REMARKS: Multiplex assay against U2OS
# Format: toxicity, cell-based
# ASSAY_SETUP: human, 24 h, 10 µM, compound concentration 10 uM, replicate 1
Examples of compounds with documented Population Apoptotic (%) follow.
Response body: numeric value in %, unit text excluded.

Some solved entries appear below for comparison.
# COMPOUND, Population Apoptotic (%)
rows = [
    ("C=CC(=O)Nc1cc2c(Nc3ccc(F)c(Cl)c3)ncnc2cc1OCCCN1CCOCC1.Cl.Cl [CANERTINIB DIHYDROCHLORIDE]", 70),
    ("CN(C)C(=O)N[C@H]1CC[C@H](CCN2CCN(c3cccc(Cl)c3Cl)CC2)CC1.Cl [CARIPRAZINE HYDROCHLORIDE]", 57),
    ("COc1cc2nccc(Oc3ccc(NC(=O)Nc4cc(C)on4)c(Cl)c3)c2cc1OC.O", 82),
    ("Cc1sc2c(c1C)C(c1ccc(Cl)cc1)=N[C@@H](CC(=O)OC(C)(C)C)c1nnc(C)n1-2", 88),
    ("COc1ncc(-c2ccc3nccc(-c4ccnnc4)c3c2)cc1NS(=O)(=O)c1ccc(F)cc1F [OMIPALISIB]", 70),
    ("CC(C)(O)CNc1ncc(-c2ccnc(Nc3ccnc(Cl)c3)n2)c(CC2CC2)n1", 52),
]

Endpoint output: Population Apoptotic (%) of Cl.N#Cc1ccc2[nH]cc(CCCCN3CCN(c4ccc5oc(C(N)=O)cc5c4)CC3)c2c1 [VILAZODONE HYDROCHLORIDE] . Value?
61

I have this compound here, c1cn2cc(-c3ccc4cn[nH]c4c3)nc(Nc3ccc(N4CCOCC4)cc3)c2n1 [ENTOSPLETINIB] , and I need its recorded Population Apoptotic (%).
70

What value of Population Apoptotic (%) has been recorded for this entry: O=C1NCN(c2ccccc2)C12CCN(CCCOc1ccc(F)cc1)CC2 [SPIRAMIDE]
41

Recorded Population Apoptotic (%) of CN1CCC[C@@H]1CCO[C@](C)(c1ccccc1)c1ccc(Cl)cc1.O=C(O)/C=C/C(=O)O [CLEMASTINE FUMARATE] , please.
64

So what does the record say about Population Apoptotic (%) for CN1CCCC(n2nc(Cc3ccc(Cl)cc3)c3ccccc3c2=O)CC1.Cl (stereo unspecified) [AZELASTINE HYDROCHLORIDE] ?
90

---

# Test system: Fibroblast
# ASSAY_REMARKS: Multiplex assay against human fibroblast
# Type: toxicity, cell-based
# ASSAY_SETUP: 12 h, 10 µM, compound concentration 10 uM, replicate 2
The entries below come with measured Population Hoechst High Intensity Objects (%) values attached.
Report the value in % with no unit label.

# COMPOUND, REPORTED_RESULT
rows = [
    ("Cn1cc(-c2[nH]c3cc(NC(=O)[C@H](N)C4CCCCC4)cc4c3c2C=NNC4=O)cn1", 9),
    ("CN(C)CC#Cc1ccc(OCCCc2sc(N3CCc4cccc(C(=O)Nc5nc6ccccc6s5)c4C3)nc2C(=O)O)c(F)c1", 5),
    ("Cc1cc(C)cc(-c2cnc3cc(Cl)c(-c4cccc(O)c4)cc3c2OCCCN)c1", 8),
]

Record request: Population Hoechst High Intensity Objects (%) value, item CN(C)C(=O)N[C@H]1CC[C@H](CCN2CCN(c3cccc(Cl)c3Cl)CC2)CC1.Cl [CARIPRAZINE HYDROCHLORIDE]
3

# query: Population Hoechst High Intensity Objects (%) of entry `C=CC(=O)Nc1cccc(C(=O)Nc2ccc(Nc3cc(-c4[nH]c(SC)nc4C)ccn3)cc2)c1`
18

For the compound `Cc1csc2c(N[C@@H](C)CN3CCN(S(=O)(=O)c4ccc(Cl)c(Cl)c4)CC3)ncnc12` , what Population Hoechst High Intensity Objects (%) is on record?
4

Dear colleague, I am looking for the recorded Population Hoechst High Intensity Objects (%) of the following compound: `Cc1[nH]c(/C=C2\C(=O)Nc3ccc(S(=O)(=O)N(C)c4cccc(Cl)c4)cc32)c(C)c1C(=O)N1CCN(C)CC1`
12

Name the recorded Population Hoechst High Intensity Objects (%) for `CN1CCN(CCOc2cc(OC3CCOCC3)c3c(Nc4c(Cl)ccc5c4OCO5)ncnc3c2)CC1` .
7
